Each entry below carries its recorded pKi.
- Study System: CCR3 receptor (UniProt P51677)
- Assay Notes: CCR3 Receptor Binding Assay ([125I]-labeled human eotaxin/CCL11 displacement on cells)
- Run Conditions: Free (free form of the compound)
pKi: −log10 of the molar value.

{"columns": ["Compound", "pKi"],
 "data": [
  ["CC1CN(S(=O)(=O)c2cc([N+](=O)[O-])ccc2Oc2cc(Cl)ccc2Cl)CC(C)N1 (centres unmarked)", "7.60 to 8.00"],
  ["CCN1CCN(S(=O)(=O)c2cc([N+](=O)[O-])ccc2Oc2cc(C)ccc2C)CC1", "< 8.30"],
  ["Cc1ccc(C)c(Sc2ccc(C#N)cc2S(=O)(=O)N2CCN(C(C)C)CC2)c1", "7.00 to 7.60"],
  ["CC(C)N1CCN(S(=O)(=O)c2cc(C#N)ccc2Oc2cc(F)ccc2F)CC1", "6.30 to 7.00"],
  ["CCCCc1nc(Cl)c2n1C(=O)N(C1CCN(S(=O)(=O)c3cc(C#N)ccc3Oc3cc(Cl)ccc3Cl)CC1)C2", "< 8.30"],
  ["CC1CCN(S(=O)(=O)c2cc(C#N)ccc2Oc2cc(Cl)ccc2Cl)CC1", "< 8.30"],
  ["Cc1ccc(C)c(Oc2ccc([N+](=O)[O-])cc2S(=O)(=O)N2CC(C)NC(C)C2)c1 (centres unmarked)", "< 8.30"],
  ["CCC(CC)N1CCN(S(=O)(=O)c2cc(C#N)ccc2Sc2cc(C)ccc2C)CC1", "7.00 to 7.60"]
]}

====

- Study System: CCR3 receptor (UniProt P51677)
- Assay Notes: CCR3 Receptor Binding Assay ([125I]-labeled human eotaxin/CCL11 displacement on cells)
- Run Conditions: HCl: hydrochloric acid salt of the corresponding compound
Metric Name: Ki

{"columns": ["Molecule", "Experimental Value"],
 "data": [
  ["Cc1ccc(C)c(Sc2ccc([N+](=O)[O-])cc2S(=O)(=O)N2CCC(N3CCCC3)CC2)c1", "≤ 10 nM"],
  ["Cc1ccc(C)c(Sc2ccc(C#N)cc2S(=O)(=O)N2CCN(C3CCCC3)CC2)c1", "100 to 500 nM"],
  ["Cc1ccc(C)c(Sc2ccc(C#N)cc2S(=O)(=O)N2CCC(N3CCCC3)CC2)c1", "≤ 10 nM"],
  ["CCC(CC)N1CCN(S(=O)(=O)c2cc(C#N)ccc2Sc2cc(Cl)ccc2Cl)CC1", "25 to 100 nM"],
  ["CC(C)N1CCN(S(=O)(=O)c2cc(C#N)ccc2Sc2cc(Cl)ccc2Cl)CC1", "≤ 10 nM"],
  ["CC1CN(S(=O)(=O)c2cc(C#N)ccc2Sc2cc(Cl)ccc2Cl)CC(C)N1 (stereo not shown)", "≤ 10 nM"],
  ["N#Cc1ccc(Oc2cc(F)ccc2F)c(S(=O)(=O)NCCN2CCCC2)c1", "> 5 nM"],
  ["CCN(CC)CCNS(=O)(=O)c1cc(C#N)ccc1Oc1cc(F)ccc1F", "> 5 nM"],
  ["Cc1ccc(C)c(Oc2ccc([N+](=O)[O-])cc2S(=O)(=O)N2CCNCC2)c1", "> 5 nM"],
  ["CC(C)N1CCCN(S(=O)(=O)c2cc(C#N)ccc2Oc2cc(Cl)ccc2Cl)CC1", "25 to 100 nM"]
]}
